Test system: IGROV-1
ASSAY SUMMARY: NCI tumour cell line growth inhibition, 48 h
Calls of active or inactive are those of the source. Rule as the data show it: active = GI50 up to about 1.1 µM and inactive = higher.
Classes used: 1 = active, -1 = inactive

O=S(=O)(O)c1cccc2cccc(/N=N/c3c(O)ccc4ccccc34)c12 : -1
CN(C)S(=O)(=O)n1ccnc1 : -1
COC1CC(C)C(OC)C2=CC(=O)C=C(NC(=O)/C(C)=C/C=C\C(C)C(OC(N)=O)/C(C)=C\C(C)C1OC)C2=O (configuration not stated) : -1
Cc1nc(Cl)c(C)c(Cl)n1 : -1
COc1ccc(-c2cc(O)c3c(C)ccnc3n2)cc1 : -1
O=C1CN(/N=C/c2ccc(-c3ccc(F)cc3)o2)C(=O)N1 : -1
CCN(CC)CCNc1n[n+]([O-])c2cc([N+](=O)[O-])ccc2[n+]1[O-] : 1
N#Cc1c(C#N)c(SSc2c(C#N)c(C#N)c(N)n2-c2cccc3ccccc23)n(-c2cccc3ccccc23)c1N : -1
c1ccc(CCN2CCCCCC2)nc1 : -1
O=C(CCn1[nH]c(=O)c(Cl)c(Cl)c1=O)NOCCCc1ccccc1 : -1
C=C1C(=O)O[C@@H]2[C@H]1CCC(C)=C1C=CC(=O)[C@]12C : -1
Cc1c(/C=N/NC(=O)c2ccc(Cl)cc2)c(=O)n(-c2ccccc2)n1C : -1
OCC1CCCC1O (configuration not stated) : -1
Cc1ccc(C2=C(c3ccccc3)C(O)(c3ccccc3)C(c3ccccc3)=C2c2ccc(C)cc2)cc1 : -1
Nc1nncs1 : -1
Cc1c(C)c(C)c(CC2(C)CSC2)c(CC2(C)CSC2)c1C : -1
O=C1/C(=C/c2ccc(Br)cc2)CCC/C1=C\c1ccc(Br)cc1 : -1
O=C(CCN1CCOCC1)/C(=C/c1ccccc1)c1ccccc1 : -1
COc1cccc(CN(C(=O)/C=C\Sc2ccccc2)C(C)(C)C)c1 : -1
Nc1cccc(/C=C/C(=O)N2CCN(CCOC(c3ccccc3)c3ccccc3)CC2)c1 : -1
CC(=O)O[C@H]1C#C/C=C\C#CC[C@@H]2C(=O)N[C@@H]12 : -1
O=C1NC(O)CCN1C1CC(O)C(CO)O1 (configuration not stated) : -1
CC1(C=O)C(=O)CCC2(C)C3CC(=O)OC3CCC12 (configuration not stated) : -1
COc1ccc2cc1Oc1ccc(cc1)CC1c3cc(c(OC)cc3CCN1C)Oc1c3c(cc4c1C(C2)N(C)CC4)OCO3 (configuration not stated) : -1
C/C=C(\C)C(=O)OC1CC(OC(C)=O)C2(C(=O)OC)COC3C2C1(C)C1C2(C(=O)OC)OCC1(C3O)C1(O)C3CC(C4(O)C=COC4O3)C1(C)O2 (configuration not stated) : -1
CC(C)C1OC(=O)C(Cc2ccccc2)N(C)C(=O)C(C(C)C)OC(=O)C(Cc2ccccc2)N(C)C(=O)C(C(C)C)OC(=O)C(Cc2ccccc2)N(C)C1=O (configuration not stated) : 1
Cc1c(C)c2c(c(N)c1C#N)C(=O)N(NC(=O)c1ccccc1)C2=O : -1
O=[N+]([O-])/C(C(Cl)=C(Cl)Cl)=C(/Br)SCc1ccccc1 : -1
O=c1c2cc(O)c(O)cc2oc2cc(O)c(C3OC(CO)C(O)C(O)C3O)c(O)c12 (configuration not stated) : -1
N#CCN1CCN(CC#N)CCN(CC#N)CCN(CC#N)CC1 : -1
C=C1C(=O)OC2C[C@@]3(C)CCCC(=C)C3CC12 (some centres not stated) : -1
CCNC(CCCC(NCC)P(=O)(O)O)P(=O)(O)O (configuration not stated) : -1
CCOC(=O)N1N=C(/C(C)=N/OC)C(C)[S+]1[O-] (configuration not stated) : -1
O=C1O/C(=C\c2ccc(O)c(Br)c2)C(c2ccc(O)c(Cl)c2)=C1Br : -1
O=C1[C@@H](c2ccc(Cl)cc2)[C@H]2CC=C[C@H]2N1O : -1
Nn1c(CCCCCCCCc2nnc(COc3ccccc3)n2N)nnc1COc1ccccc1 : -1
CN(C(=O)CCC(=O)O)c1ccccc1C(=O)O : -1
Cc1cc(N(CCOS(C)(=O)=O)CCOS(C)(=O)=O)ccc1/C=N/c1ccc(-c2csc(-c3ccc(Br)cc3)n2)cc1 : -1
CC1=Nc2c(N)nc(N)nc2N(C)C1 : -1
O=C(NN1C(=O)c2ccccc2C1=O)c1ccccc1Nc1ccccc1C(=O)NN1C(=O)c2ccccc2C1=O : -1
CCC/C=C\C=C\C1(NS(=O)(=O)c2ccc(C)cc2)CCC(C(C)(C)C)CC1 (configuration not stated) : -1
CCOC(=O)/C(C(=O)Nc1cccc(Cl)c1)=C(/N)N1CCOCC1 : -1
